Cited source for all entries: the supplement of paper PMC12632987

# Study target: T1, USP38, Q8NB14
# T1 chain: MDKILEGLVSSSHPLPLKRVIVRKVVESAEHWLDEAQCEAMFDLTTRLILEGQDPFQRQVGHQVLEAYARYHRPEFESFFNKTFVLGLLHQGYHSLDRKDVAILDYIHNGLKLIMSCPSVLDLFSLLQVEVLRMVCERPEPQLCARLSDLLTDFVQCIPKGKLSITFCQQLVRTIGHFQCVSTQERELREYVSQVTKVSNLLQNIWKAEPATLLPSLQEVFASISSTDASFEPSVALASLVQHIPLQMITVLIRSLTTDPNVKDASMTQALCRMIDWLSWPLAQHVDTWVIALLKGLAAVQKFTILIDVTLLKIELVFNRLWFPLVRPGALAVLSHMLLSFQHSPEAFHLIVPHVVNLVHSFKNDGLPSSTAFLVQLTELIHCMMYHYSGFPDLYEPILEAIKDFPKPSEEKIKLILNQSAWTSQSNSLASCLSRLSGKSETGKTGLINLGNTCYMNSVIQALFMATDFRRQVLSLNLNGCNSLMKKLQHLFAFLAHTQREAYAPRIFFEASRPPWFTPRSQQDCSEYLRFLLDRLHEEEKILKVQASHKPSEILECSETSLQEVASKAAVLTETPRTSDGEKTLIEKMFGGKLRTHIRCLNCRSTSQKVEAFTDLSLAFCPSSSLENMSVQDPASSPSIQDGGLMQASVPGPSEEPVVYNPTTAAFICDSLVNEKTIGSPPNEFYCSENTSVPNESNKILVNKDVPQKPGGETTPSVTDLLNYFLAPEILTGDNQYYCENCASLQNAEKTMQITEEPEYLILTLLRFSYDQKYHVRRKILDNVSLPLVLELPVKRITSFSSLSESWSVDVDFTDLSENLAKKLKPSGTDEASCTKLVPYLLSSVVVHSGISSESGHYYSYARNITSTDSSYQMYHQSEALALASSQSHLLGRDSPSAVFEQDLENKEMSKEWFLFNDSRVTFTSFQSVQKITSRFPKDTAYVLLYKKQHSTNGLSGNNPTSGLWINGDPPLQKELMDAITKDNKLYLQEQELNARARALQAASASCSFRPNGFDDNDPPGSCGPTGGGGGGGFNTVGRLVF
# Test description: median log2 fold change of GCK-ALFA target abundance (FLAG IP / Myc IP barcode read proportion) (log2 ratio); each designed protein is fused to an ALFA-tag nanobody in HEK293 cells to bring the named protein to FLAG-tagged glucokinase (GCK); Myc marks an untargeted standard; higher = target protein stabilised (more abundant)
# Details: target protein: 3xFLAG-MCP-GCK-ALFA reporter; HEK293 landing pad (RPLP)
What median log2 fold change was measured for each of the following?
Numbers only.

Lookup: Which measured median log2 fold change value corresponds to usp_38_diff_out_22_164_478 (protein) SEEEILKKVKEELEKLAEETKKELDKLFEEAKANPEKKEEYIQEAQMLIIKTQKEMNDYIEETVKKYNLSEETKEELKSHRTVLNLKVLNYLDEKIEELK ?
Found: 0.187

Lookup: Then usp_38_diff_out_13_93_73 (protein) DPAEELRREAEELIEELRRRTDELVARLEAGEITIEEALARFSELMDEAAERLRELIARAEALGLEALAREIRRRVLEAMVEATERLGAALERAAEREAA ?
Found: -0.395

Lookup: Then usp_38_diff_out_16_109_180 (protein) SAEAEADKAYAEAVIANLEALAKAAEAELKKLKARGASPEVLAAYQALRDTAKAAAATLKAALAAGEDLRAIADAQWDAVGAAAAAAAALRRAEVAARSA ?
Found: -0.191

Lookup: Then usp_38_diff_out_2_113_463 (protein) SEEERRERAEDLARIILEGSEYLLEKAKRGTLSGETMITMIGGIVHAAEEAFRLDPSVAPVIKRAIEKLKEIAELYKDKNPEVYEAIKEAIERLEKLLAE ?
Found: -0.229

Lookup: Then usp_38_diff_out_18_28_428 (protein) SQEEIQKLIEENRKKTDELIDEANKVATEAYLAYHDNPEATELLEAVDKLWDALGKAAQAVNEMRENRDDPEKVKKEAAKFEEAAKKAEEYIKKIKELIA ?
Found: 0.0104

Fill in median log2 fold change for each of the 4 binders listed.
1. usp_38_diff_out_5_91_614 (protein) EERRKKLIEKAEEAAKKLEEAAKRLEAGEDYTKDIEEAIELYREIAAALADGDARERRLSLTAAGMALALEKLGEYPKDLQIAMLKAHADVAKEMAEQLK
2. usp_38_diff_out_18_14_325 (protein) DAELIAATLANLKSLTEETKKDTERLEKVVEKLKDDPESARSLLETRRQAYEGVKEYAEETKKEAEANGDKELAAAAQELKDAAEKALEKIDKLLKELEA
3. usp_38_diff_out_4_99_572 (protein) EREEMVERMKELTERLKELTARAKAARALPPAERAAAAAALREELDRLAREAGEIYFRARDSGDKELIEEVGKVADEFVDAYLEAGTALNELEAEVDAAA
4. usp_38_diff_out_18_28_422 (protein) SLAERRALIEELKKEADELIDEYTELATEAFLAYHENPDAEELLAAADALSDAVGAAAAAVREMREHLEDEAKVEAYTKEFKAQKKEAKEKAKELKKLLA

Found:
1. 0.105
2. 0.134
3. 0.235
4. -0.0738
